Reference source for all entries: patent US12397058B2

Each record here notes measured TI (therapeutic index derived from EC50/CC50).
# Test system: HSV1 E377
# METHOD_NOTES: microbe, parasite or virus in culture
# Assay type: cell-based, Herpes Simplex Virus 1
# CONDITIONS_USED: HSV1 E377, HFF cells
EXPERIMENTAL_ENDPOINT: TI (therapeutic index derived from EC50/CC50)

> print(dat)
                                   molecule  result
1  N.Nc1ccn(C[C@@H](CO)OCP(=O)(O)OCCCS(=O)(=O)CCCCCCCCCCC2CCC2)c(=O)n1 [Compound 120]     149
2  CC1(CCCCCCCCCCCCS(=O)(=O)CCCOP(=O)(O)CO[C@H](CO)Cn2cnc(N)cc2=O)COC1 [Compound 110]    >313
3  CCOC(=O)P(=O)(OCCCS(=O)(=O)CCCCCCCC1(C)COC1)OCCCS(=O)(=O)CCCCCCCC1(C)COC1 [Compound 124]       1
4  N.Nc1ccn(C[C@@H](CO)OCP(=O)(O)OCCCS(=O)(=O)CCCCCCCCCCCCCC2CCC2)c(=O)n1 [Compound 122]     469
5  N.Nc1ccn(C[C@@H](CO)OCP(=O)(O)OCCCS(=O)(=O)CCCCCCCCCCCCC2CCC2)c(=O)n1 [Compound 121]    1159
